test: Toxicity in DBA/2 mouse allografted with mouse P388 cells assessed as mortality after 4 days; type: organism-based; settings: read-out: MNTD
attributeMeasured: MTD at 96 h (mg/kg)
Report the value in mg/kg with no unit label.

Entry C=C1C(=O)O[C@@H]2C[C@@H](C)[C@@H]3C=CC(=O)[C@@]3(C)[C@@H](O)[C@H]12 [HELENALIN] , MTD at 96 h reported as 16.8

* * *

test: Cytotoxicity against human Hep2 cells assessed as growth inhibition by microtiter method; format: functional; details: HEp-2, read-out: ED50 (the source's name)
attributeMeasured: EC50 (µg/mL)
Give a bare numeral; the unit µg/mL is implied.

compound=C[C@@H]1C[C@@H](O)[C@@H]([C@H]2CN(C)CCN(C)C2=O)[C@H](O)[C@]2(C)C(=O)C=C[C@@H]12 attributemeasured=EC50 unitname=µg/mL recordednumber=1.87
compound=C[C@@H]1C[C@H]2OC(=O)[C@@H](C)[C@H]2[C@H](O)[C@]2(C)C(=O)C=C[C@@H]12 attributemeasured=EC50 unitname=µg/mL recordednumber=0.81
compound="C[C@@H]1C[C@@H](OC(=O)/C=C/c2ccccc2)[C@@H](C2CN(C)CCN(C)C2=O)[C@H](O)[C@]2(C)C(=O)C=C[C@@H]12 (some centres not stated)" attributemeasured=EC50 unitname=µg/mL recordednumber=2.89
compound="CC(=O)O[C@H]1[C@H](C2CN(C)CCN(C)C2=O)[C@H](O)C[C@@H](C)[C@@H]2C=CC(=O)[C@]21C (some centres not stated)" attributemeasured=EC50 unitname=µg/mL recordednumber=4.96
compound=C=C1C(=O)O[C@@H]2C[C@@H](C)[C@@H]3C=CC(=O)[C@@]3(C)[C@@H](OC(C)=O)[C@H]12 attributemeasured=EC50 unitname=µg/mL recordednumber=0.29

The compound listed as "C=C1C(=O)O[C@@H]2C[C@@H](C)[C@@H]3C=CC(=O)[C@@]3(C)[C@@H](OC(=O)/C=C/c3ccccc3)[C@H]12" has a reported EC50 of 0.04

EC50 recorded for this compound, "C=C1C(=O)O[C@@H]2C[C@@H](C)[C@@H]3C=CC(=O)[C@@]3(C)[C@@H](O)[C@H]12" , is 0.08

* * *

test: Toxicity in Sprague-Dawley rat allografted with rat Walker 256 cells assessed as mortality after 4 days; format: organism-based; conditions: read-out: MNTD
attributeMeasured: MTD at 96 h (mg/kg)
Write it as a number; the unit mg/kg goes unstated.

Entry "C=C1C(=O)O[C@@H]2C[C@@H](C)[C@@H]3C=CC(=O)[C@@]3(C)[C@@H](O)[C@H]12" — recorded MTD at 96 h = 2.5

* * *

Reported EC50 values follow for various molecules
assay: Cytotoxicity against human Hep2 cells assessed as growth inhibition by microtiter method; type: functional; details: HEp-2, read-out: ED50 (the source's name)
Report only the number, with the unit µg/mL understood.

molecule="C[C@@H]1C[C@H]2OC(=O)C(CN(C)C)[C@H]2[C@H](O)[C@]2(C)C(=O)CC(N(C)C)[C@@H]12 (stereo not given in full)" recordednumber=0.85

Now, please, on to the next molecule.
The recorded EC50 for C[C@@H]1C[C@H]2OC(=O)C(CN(C)C)[C@H]2[C@H](O)[C@]2(C)C(=O)C=C[C@@H]12 (stereo not given in full) is 0.6

* * *

assay: Cytotoxicity against human Hep2 cells assessed as growth inhibition by microtiter method; assay type: functional; conditions: HEp-2, read-out: ED50 (the source's name)
attributeMeasured: EC50

compound="CC(=O)O[C@H]1[C@H](C2CN(C)CCN(C)C2=O)[C@H](OC(=O)/C=C/c2ccccc2)C[C@@H](C)[C@@H]2C=CC(=O)[C@]21C (stereo partly drawn)" attributemeasured=EC50 result="0.84 µg/mL"

Given item C[C@@H]1C[C@@H](OC(=O)/C=C/c2ccccc2)[C@@H](C2CN(C)CCN(C)C2=O)[C@H](OC(=O)/C=C/c2ccccc2)[C@]2(C)C(=O)C=C[C@@H]12 (stereo partly drawn) , the value recorded as its EC50 is 0.75 µg/mL

Sample C[C@@H]1C[C@H]2OC(=O)C(CN(C)C)[C@H]2[C@H](O)[C@]2(C)C(O)CC[C@@H]12 (stereo partly drawn) ; EC50 observed: 3.69 µg/mL

Data origin: ChEMBL document CHEMBL3244430
